assaySystem: human 5-HT5A receptor (Homo sapiens (Human), UniProt P47898)
Sequence (P47898 whole entry): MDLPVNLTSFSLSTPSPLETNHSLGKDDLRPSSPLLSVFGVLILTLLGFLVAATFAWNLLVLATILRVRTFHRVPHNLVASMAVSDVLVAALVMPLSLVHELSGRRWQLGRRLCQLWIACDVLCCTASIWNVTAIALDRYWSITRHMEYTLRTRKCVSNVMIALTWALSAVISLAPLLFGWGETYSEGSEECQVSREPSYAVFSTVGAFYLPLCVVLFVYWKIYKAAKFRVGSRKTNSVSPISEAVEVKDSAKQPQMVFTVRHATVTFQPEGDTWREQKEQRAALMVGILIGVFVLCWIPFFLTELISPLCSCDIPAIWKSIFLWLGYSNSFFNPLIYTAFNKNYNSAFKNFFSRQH
procedureText: Test on a human 5-HT5A receptor binding inhibition ([3H]5-CT)
assaySetup: [3H]5-CT binding, membrane from HEK293 cells expressing human 5-HT5A receptor; Ki calculated from IC50
pKi: −log10 of the molar value.
Field: pKi. Provide a value for each of the compounds that follow.

Can you look up the measured pKi of Cc1cnc2ccc(C(=O)N=C(N)N)cc2c1-c1c(F)cccc1F for me?
8.00 to 9.00

Try this compound too: CCc1cc(-c2c(F)cc(F)cc2F)c2cc(C(=O)N=C(N)N)ccc2n1
7.00 to 8.00

Same again, this time with Cc1nc2ccc(C(=O)N=C(N)N)cc2c(-c2ccccc2Cl)c1Cl
8.00 to 9.00

Try the compound Cc1cc(C(=O)N=C(N)N)cc2c(C3CC3)ccnc12
7.00 to 8.00

Next up: Cc1ccc(-c2ccnc3c(C)cc(C(=O)N=C(N)N)cc23)c(F)c1
7.00 to 8.00

Try this compound too: NC(N)=NC(=O)c1ccc2ccnc(-c3ccccc3)c2c1
7.00 to 8.00

Would you kindly repeat that for NC(N)=NC(=O)c1ccc2nccc(-c3ccc(Cl)cc3F)c2c1 ?
7.00 to 8.00

Note, next up: Cc1cc(C(=O)N=C(N)N)cc2c(-c3ccccc3F)c(Cl)cnc12
8.00 to 9.00

Repeat with Cc1nc(-c2c(F)cc(F)cc2F)c2cc(C(=O)N=C(N)N)ccc2c1F
8.00 to 9.00
